pIC50 values, listed per item
Target: Human immunodeficiency virus type 1 integrase (Human immunodeficiency virus 1)
Sequence (Q7ZJM1 whole entry): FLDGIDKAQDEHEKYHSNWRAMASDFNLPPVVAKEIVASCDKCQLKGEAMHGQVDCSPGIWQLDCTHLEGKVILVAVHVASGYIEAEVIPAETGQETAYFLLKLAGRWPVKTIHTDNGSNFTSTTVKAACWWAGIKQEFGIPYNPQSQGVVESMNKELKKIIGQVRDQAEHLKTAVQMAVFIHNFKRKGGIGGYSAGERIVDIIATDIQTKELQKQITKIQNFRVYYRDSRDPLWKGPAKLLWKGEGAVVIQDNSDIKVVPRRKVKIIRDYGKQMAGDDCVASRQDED
pIC50: −log10 of the molar value.
measure-name: pIC50

molecule | limit-qualifier | measured-value
COC(Nc1cc(Cl)c([N+](=O)[O-])cc1Cl)c1ccc2cccc(O)c2n1 (centres undefined) | = | 3.64
Oc1cccc2ccc(/C=C/c3cccc(Cl)c3)nc12 | = | 3.64
O=C(O)c1ccc2ccc(/C=C/c3cccc(Cl)c3)nc2c1 | = | 3.64
Cc1ccc2c(N=O)ccc(O)c2n1 | < | 3.48
